System: MDA-MB-468
Test: Inhibition of proliferation of MDA-MB-468 cells by test compounds (CellTiter-Glo, 72 h)
Format: cell-based
Conditions: MDA-MB-468, 72 h incubation
Consider the following compounds; for each one, report its IC50.
Give bare numbers, in nM.

Compound: CC[C@@]1(O)C(=O)OCc2c1cc1n(c2=O)Cc2c-1nc1cc(F)c(OC(F)F)c3c1c2C(NC(=O)C[C@@H](C)O)CC3 (some centres unmarked) [5-1]
Readout Units: nM
Numeric Value: 6.7
--
Compound: CC[C@@H](O)CC(=O)N[C@H]1CCCc2c(C)c(F)cc3nc4c(c1c23)Cn1c-4cc2c(c1=O)COC(=O)[C@]2(O)CC [36-1]
Readout Units: nM
Numeric Value: 14
--
Compound: CC[C@H](O)CC(=O)N[C@H]1CCCc2c(C)c(F)cc3nc4c(c1c23)Cn1c-4cc2c(c1=O)COC(=O)[C@]2(O)CC [36-2]
Readout Units: nM
Numeric Value: 6.4
--
Compound: CC[C@@]1(O)C(=O)OCc2c1cc1n(c2=O)Cc2c-1nc1cc(F)c(C)c3c1c2C(NC(=O)C[C@@H](C)O)CCC3 (some centres unmarked) [6-1]
Readout Units: nM
Numeric Value: 8.8
--
Compound: CC[C@@]1(O)C(=O)OCc2c1cc1n(c2=O)Cc2c-1nc1cc(F)c(C3CC3)c3c1c2C(NC(=O)C[C@@H](C)O)CC3 (single isomer, unassigned) [17-2]
Readout Units: nM
Numeric Value: 8.1
--
Compound: CC[C@@]1(O)C(=O)OCc2c1cc1n(c2=O)Cc2c-1nc1cc(F)c(C3CC3)c3c1c2C(NC(=O)[C@H]1C[C@@H](O)C1)CC3 (some centres unmarked) [18-1]
Readout Units: nM
Numeric Value: 12

For each of the compounds below, state IC50.
1. CC[C@@]1(O)C(=O)OCc2c1cc1n(c2=O)Cc2c-1nc1cc(F)c(Br)c3c1c2C(NC(=O)C[C@@H](C)O)CC3 (some centres unmarked) [3-2]
2. CC[C@@]1(O)C(=O)OCc2c1cc1n(c2=O)Cc2c-1nc1cc(F)c(C3CC3)c3c1c2C(NC(=O)C[C@@H](C)O)CCC3 (single isomer, unassigned) [19-2]
3. CC[C@@]1(O)C(=O)OCc2c1cc1n(c2=O)Cc2c-1nc1cc(F)c(OCC(F)(F)F)c3c1c2C(NC(=O)C[C@@H](C)O)CC3 (some centres unmarked) [8-2]
4. CC[C@@]1(O)C(=O)OCc2c1cc1n(c2=O)Cc2c-1nc1cc(F)c(OCC(F)(F)F)c3c1c2C(NC(=O)C[C@@H](C)O)CC3 (some centres unmarked) [8-1]

12
6.9
38
13

// for each compound in input: emit IC50
1. CC[C@@]1(O)C(=O)OCc2c1cc1n(c2=O)Cc2c-1nc1cc(F)c(C)c3c1c2[C@@H](NC(=O)C[C@@H](O)C(C)C)CCC3 [37-2]
2. CC[C@@]1(O)C(=O)OCc2c1cc1n(c2=O)Cc2c-1nc1cc(F)c(C)c3c1c2C(NC(=O)[C@H]1C[C@@H](O)C1)CCO3 (single isomer, unassigned) [25-2]
3. C=Cc1c(F)cc2nc3c(c4c2c1CCC4NC(=O)C[C@@H](C)O)Cn1c-3cc2c(c1=O)COC(=O)[C@]2(O)CC (some centres unmarked) [7-1]
4. CC[C@@]1(O)C(=O)OCc2c1cc1n(c2=O)Cc2c-1nc1cc(F)cc3c1c2C(NC(=O)C[C@@H](C)O)CC3 (some centres unmarked) [4-1]

1. 6.6
2. 18
3. 3.1
4. 34

Sourced from patent EP4692091A1
